These measurements were taken from patent EP0368175A1.

# measured.target: PAF-Rezeptor (Homo sapiens, UniProt P25105)
# Construct: endogenous in cells; host or cells: intact human platelets from blood of healthy donors, purified on Sepharose CL-2B
# Sequence (P25105 whole entry): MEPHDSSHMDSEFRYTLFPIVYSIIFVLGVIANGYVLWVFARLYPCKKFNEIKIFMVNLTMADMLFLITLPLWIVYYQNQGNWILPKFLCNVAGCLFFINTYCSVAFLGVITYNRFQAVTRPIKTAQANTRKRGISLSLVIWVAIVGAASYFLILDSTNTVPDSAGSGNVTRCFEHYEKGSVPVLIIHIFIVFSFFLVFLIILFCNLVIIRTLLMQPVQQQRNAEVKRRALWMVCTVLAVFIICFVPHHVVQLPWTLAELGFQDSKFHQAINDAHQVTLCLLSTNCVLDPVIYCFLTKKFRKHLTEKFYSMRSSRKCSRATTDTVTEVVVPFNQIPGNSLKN
# experimental.details: [^3H]PAF receptor binding on vital human platelets
# cond: 33 : 67 mixture of diastereomers; read-out: [^3H]PAF-Bindung: K
experimental.readout: Ki
Write down the value, and be sure its unit follows.

Looking up Cc1nnc2n1-c1sc3c(c1C(c1ccccc1Cl)=NC2C)CC(C(=O)N1CCOCC1)C3 (stereo not shown) [Beispiel 9d] , I found its Ki recorded as 0.083 µM

###

# measured.target: PAF-Rezeptor (Homo sapiens, UniProt P25105)
# Construct: endogenous in cells; host or cells: intact human platelets from blood of healthy donors, purified on Sepharose CL-2B
# experimental.details: [^3H]PAF receptor binding on vital human platelets
# cond: not stated whether IC50 or Ki; read-out: Affinität zum PAF-Rezeptor
experimental.readout: pKi
Answers are plain numbers, as −log10 of the molar value.

Looking up Cc1nnc2n1-c1sc(CCC(=O)N3CCOCC3)cc1C(c1ccccc1Cl)=NC2C (racemic) , I found its pKi recorded as 7.80
